- target of assay: R-AMC cleaving aminopeptidase activity (Fr. No 26–27 of barley leaf extract)
- assay protocol: Inhibition of R-AMC cleaving aminopeptidase activity, pooled ion-exchange fractions Nos. 26–27
- settings: substrate R-AMC 25 µM; Fr. No 26–27; senescing leaves six weeks after anthesis; pH 5.5; read-out: Effect/IC50
observed property: IC50

- compound: "CC(C)C[C@H](NC(=O)[C@H]1O[C@@H]1C(=O)O)C(=O)NCCCCN=C(N)N (relative stereo)"
  reported measurement: "> 25 µM"
- compound: "c1cnc2c(c1)ccc1cccnc12"
  reported measurement: "68.5 µM"

Problem: # return recorded IC50 for input CC(C)C[C@H](NC(=O)[C@@H](O)[C@H](N)Cc1ccccc1)C(=O)O
Result: 247 µM
